Hey, just so you know, these numbers are from BindingDB's records for doi:10.1016/s0960-894x(01)00689-8.

Listing of recorded pKi by entry.
measured.on: Mu-type opioid receptor (Rattus norvegicus, UniProt P33535)
Sequence (P33535 whole entry): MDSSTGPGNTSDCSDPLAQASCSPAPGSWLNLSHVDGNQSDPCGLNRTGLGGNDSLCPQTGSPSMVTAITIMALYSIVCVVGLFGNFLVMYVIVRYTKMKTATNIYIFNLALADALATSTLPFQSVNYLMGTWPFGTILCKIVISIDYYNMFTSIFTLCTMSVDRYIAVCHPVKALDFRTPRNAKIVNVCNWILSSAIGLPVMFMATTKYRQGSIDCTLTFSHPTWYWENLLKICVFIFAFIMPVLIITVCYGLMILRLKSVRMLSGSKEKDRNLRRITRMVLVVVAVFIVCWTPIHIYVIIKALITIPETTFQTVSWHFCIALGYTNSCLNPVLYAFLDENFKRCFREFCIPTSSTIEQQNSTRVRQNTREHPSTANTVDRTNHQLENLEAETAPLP
protocol.details: Binding affinity for mu opioid receptor by displacing [3H]-DAMGO was determined
pKi: −log10 of the molar value.

Here is how some compounds turned out for pKi.
COc1ccc2c3c1O[C@H]1c4[nH]c5ccccc5c4[C@H](C)C4C(C2)N(C)CCC341 (stereo partly drawn); < 5.32
CCCC[C@H]1c2c([nH]c3ccccc23)[C@@H]2Oc3c(OC)ccc4c3C23CCN(C)C(C4)C13 (stereo partly drawn); < 5.37

What value of measured pKi is listed for COc1ccc2c3c1O[C@H]1c4[nH]c5ccccc5c4CC4C(C2)N(C)CCC341 (stereo partly drawn) ? < 5.30
